# assay.remarks: NCI Yeast Anticancer Drug Screen. Data for the mec2-1 strain (AID 157)
# assay.setup: S. cerevisiae mec2-1 strain, at 50.0 µM, stronger effect = higher value
About 79,000 compounds went through this panel and 15% of them were active in at least one assay; those are over-represented in the sample as a whole.
Outcome label depends on growth inhibition relative to -20%: at/above gives met, below gives not met.

In: Quick check: does `O=C1CNC(=O)N1CCCl` have growth inhibition greater than or equal to -20%?
Out: met

In: Quick check: does COC(=O)/C=C1\CCC2C3CC=C4C=C(N5CCCC5)CCC4(C)C3C(=O)CC12C (configuration not stated) have growth inhibition greater than or equal to -20%?
Out: met

In: Quick check: does CC(=O)Nc1ccc(C(=O)CC(c2ccccc2)N2CCOCC2)cc1 (configuration not stated) have growth inhibition greater than or equal to -20%?
Out: met

In: Quick check: does O=C(CN1CCN(c2cccc(Cl)c2)CC1)N1CCc2c([nH]c3ccccc23)C1c1cccnc1 (configuration not stated) have growth inhibition greater than or equal to -20%?
Out: not met

In: Quick check: does `CCOC(=O)Nc1cc2c(c(N)n1)N=C(c1ccc(OC)cc1)CN2` have growth inhibition greater than or equal to -20%?
Out: met

In: Quick check: does `O=C(NC(COC(=O)c1ccccc1)COC(=O)c1ccccc1)c1ccccc1` have growth inhibition greater than or equal to -20%?
Out: met

In: Quick check: does CCC(C(=O)c1ccccc1)[n+]1ccccc1 (configuration not stated) have growth inhibition greater than or equal to -20%?
Out: met

In: Quick check: does `c1ccc2cc(C3OCC4(CCC4)CO3)ccc2c1` have growth inhibition greater than or equal to -20%?
Out: met

In: Quick check: does `CC(C)(C)C(=O)Cn1nnnc1C(=O)C(C)(C)C` have growth inhibition greater than or equal to -20%?
Out: not met

In: Quick check: does `c1ccc(C(c2ccccc2)[n+]2ccccc2)cc1` have growth inhibition greater than or equal to -20%?
Out: met

In: Quick check: does `CCC(=O)Oc1cccc2ccccc12` have growth inhibition greater than or equal to -20%?
Out: not met
